- experimental_system: T1, iASPP (1-240)-GST (human, UniProt Q8WUF5 1-240)
- T1 construct: Expressed in bacteria, purified on glutathione beads; also called N-terminal iASPP; not shown: GST tag from pGEX vector (BamHI/EcoRI cloning)
- T1 sequence: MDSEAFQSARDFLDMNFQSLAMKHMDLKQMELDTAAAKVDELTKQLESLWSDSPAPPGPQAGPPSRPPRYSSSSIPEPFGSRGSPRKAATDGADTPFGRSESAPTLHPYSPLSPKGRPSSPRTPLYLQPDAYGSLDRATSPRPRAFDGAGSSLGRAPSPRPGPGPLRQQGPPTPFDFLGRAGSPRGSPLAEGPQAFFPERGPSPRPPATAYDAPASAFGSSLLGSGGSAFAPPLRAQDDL
- method: in vitro translated iASPP(625-828)-V5 mutant pulled down with iASPP(1-240)-GST glutathione beads
property_name: binding result

| binder | result |
| --- | --- |
| iASPP(625-828)/T722A (other, In vitro translated; not shown: V5 tag) LNPLVLLLDAALTGELEVVQQAVKEMNDPSQPNEEGITALHNAICGANYSIVDFLITAGANVNSPDSHGWTPLHCAASCNDTVICMALVQHGAAIFAATLSDGATAFEKCDPYREGYADCATYLADVEQSMGLMNSGAVYALWDYSAEFGDELSFREGESVTVLRRDGPEETDWWWAALHGQEGYVPRNYFGLFPRVKPQRSKV | binds |
| iASPP(625-828)/T722A/Y814A (other, In vitro translated; not shown: V5 tag) LNPLVLLLDAALTGELEVVQQAVKEMNDPSQPNEEGITALHNAICGANYSIVDFLITAGANVNSPDSHGWTPLHCAASCNDTVICMALVQHGAAIFAATLSDGATAFEKCDPYREGYADCATYLADVEQSMGLMNSGAVYALWDYSAEFGDELSFREGESVTVLRRDGPEETDWWWAALHGQEGYVPRNAFGLFPRVKPQRSKV | binds |
| iASPP(625-828)/N813A (other, In vitro translated; not shown: V5 tag) LNPLVLLLDAALTGELEVVQQAVKEMNDPSQPNEEGITALHNAICGANYSIVDFLITAGANVNSPDSHGWTPLHCAASCNDTVICMALVQHGAAIFATTLSDGATAFEKCDPYREGYADCATYLADVEQSMGLMNSGAVYALWDYSAEFGDELSFREGESVTVLRRDGPEETDWWWAALHGQEGYVPRAYFGLFPRVKPQRSKV | binds |
